From: patent US12479816B2

System: 20-HETE formation (CYP4) in HLM
METHOD SUMMARY: Inhibition of 20-HETE formation at 250 or 500 nM in HLM microsomal incubations
Assay type: biochemical, human
TEST CONTEXT: 500 nM compound; HLM 300 μg/ml, AA 100 μM, 20 min
RECORDED ENDPOINT: HLM % inh. @ 500 nM (%)
Field format: number, assumed %, no unit text.

{"COMPOUND": "Cc1cccc(CC2CCN(c3cn[nH]c3)CC2)c1 [Compound 94]", "TARGET DESC": "20-HETE formation (CYP4) in HLM", "UNIT OF MEASUREMENT": "%", "HLM % inh. @ 500 nM": 61.3}
{"COMPOUND": "O=S(=O)(c1ccc(C2CCN(c3ccn[nH]3)CC2)cc1)N1CCCC1 [Compound 96]", "TARGET DESC": "20-HETE formation (CYP4) in HLM", "UNIT OF MEASUREMENT": "%", "HLM % inh. @ 500 nM": 63.10}
{"COMPOUND": "O=C(c1ccc(C2CCN(c3ccn[nH]3)CC2)c(F)c1)N1CCCC1 [Compound 82]", "TARGET DESC": "20-HETE formation (CYP4) in HLM", "UNIT OF MEASUREMENT": "%", "HLM % inh. @ 500 nM": 75}
{"COMPOUND": "O=C(c1ccc(C2CCN(c3ccn[nH]3)CC2)cc1)N1CCCC1 [Compound 78]", "TARGET DESC": "20-HETE formation (CYP4) in HLM", "UNIT OF MEASUREMENT": "%", "HLM % inh. @ 500 nM": 83.6}
{"COMPOUND": "COc1ccc(SC2CCN(c3cn[nH]c3)CC2)cc1 [Compound 80]", "TARGET DESC": "20-HETE formation (CYP4) in HLM", "UNIT OF MEASUREMENT": "%", "HLM % inh. @ 500 nM": 86}
{"COMPOUND": "Clc1cccc(CC2CCN(c3cn[nH]c3)CC2)c1 [Compound 90]", "TARGET DESC": "20-HETE formation (CYP4) in HLM", "UNIT OF MEASUREMENT": "%", "HLM % inh. @ 500 nM": 67}

Exercise: Print 20-HETE formation (CYP4) in HLM HLM % inh. @ 500 nM for COc1ccc(C2CCN(c3ccn[nH]3)CC2)c(F)c1 [Compound 46] .
Key: 78.00

Exercise: Give HLM % inh. @ 500 nM only, for c1ccc(SC2CCN(c3cn[nH]c3)CC2)cc1 [Compound 40] , using 20-HETE formation (CYP4) in HLM data.
Key: 65.80

Exercise: Report the value of HLM % inh. @ 500 nM obtained on 20-HETE formation (CYP4) in HLM for COc1cc(CC2CCN(c3cn[nH]c3)CC2)ccn1 [Compound 98] .
Key: 37.20

Exercise: Please respond with reported HLM % inh. @ 500 nM (system 20-HETE formation (CYP4) in HLM) for Fc1ccc(C2CCN(c3cn[nH]c3)CC2)cc1 [Compound 17] .
Key: 80.00

---

METHOD SUMMARY: Turbidometric solubility determination
Assay type: physicochemical
TEST CONTEXT: PBS with 1% DMSO, aqueous buffer, kinetic from dmso stock, room temperature, OD620, read-out: Max Solub
Parameter solubility at 2 h: see the listing below.
Give the value, in units of µM, as a plain number.

A selection of reference data follows.
{"ENTRY SMILES": "O=C1COCCN1c1ccc(C2CCN(c3cn[nH]c3)CC2)cc1", "RECORDED ENDPOINT": "solubility at 2 h", "TEST RESULT": 247}
{"ENTRY SMILES": "COc1ccc(C2CCN(c3cn[nH]c3)CC2)cn1", "RECORDED ENDPOINT": "solubility at 2 h", "TEST RESULT": 391}
{"ENTRY SMILES": "COc1cccc(C2CCN(c3cn[nH]c3)CC2)c1", "RECORDED ENDPOINT": "solubility at 2 h", "TEST RESULT": 111}
{"ENTRY SMILES": "Clc1cccc(C2CCN(c3cn[nH]c3)CC2)c1", "RECORDED ENDPOINT": "solubility at 2 h", "TEST RESULT": 121}

Exercise: Write down solubility at 2 h measured for item `CCS(=O)(=O)c1ccc(C2CCN(c3ccn[nH]3)CC2)cc1`
Key: 394

Exercise: Read off the recorded solubility at 2 h for `Fc1ccc(SC2CCN(c3cn[nH]c3)CC2)cc1`
Key: 109

Exercise: Identify solubility at 2 h associated with the compound `CC(=O)N(C)c1ccc(C2CCN(c3cn[nH]c3)CC2)c(F)c1`
Key: 304

Exercise: Look up solubility at 2 h of `CS(=O)(=O)Cc1ccc(C2CCN(c3cn[nH]c3)CC2)cc1` and report it.
Key: 324

Exercise: // fetch solubility at 2 h given entry `Cc1ccccc1C1CCN(c2cn[nH]c2)CC1`
Key: 752

---

Tested on: MDR1 (P-gp)
METHOD SUMMARY: BBB penetration potential, MDR1-MDCK permeability
Format: in vitro ADME
TEST CONTEXT: dog, apical to basolateral, pH 7.4, read-out: BBB penetration potential MDCK A-B 10−6 cm/s
Experimental: BBB penetration potential assessment data in Table 1 was obtained as follows. MDR1-MDCK cell monolayers were grown to confluence on collagen-coated, microporous membranes in 12-well assay plates. Atenolol, propranolol and digoxin were used as control to assess plate quality. […] Each determination was performed in duplicate the flux of lucifer yellow was also measured post-experimentally for each monolayer to ensure no damage was inflicted to the cell monolayers during the flux period. […]
Recorded Papp A→B at 120 min, 5 μM values for a group of molecules are listed next.
API: value field is a number in ×10⁻⁶ cm/s; no unit string.

In the examples that follow, each entry is paired with its recorded Papp A→B at 120 min, 5 μM.
{"MOLECULE": "c1ccc(CC2CCN(c3cn[nH]c3)CC2)cc1", "Papp A→B at 120 min, 5 μM (×10⁻⁶ cm/s)": 62}
{"MOLECULE": "O=C1CCCN1Cc1ccc(C2CCN(c3cn[nH]c3)CC2)cc1F", "Papp A→B at 120 min, 5 μM (×10⁻⁶ cm/s)": 10.8}
{"MOLECULE": "O=C1CCCN1Cc1ccc(C2CCN(c3cn[nH]c3)CC2)cc1", "Papp A→B at 120 min, 5 μM (×10⁻⁶ cm/s)": 5.16}
{"MOLECULE": "COc1ccc(C2CCN(c3cn[nH]c3)CC2)cc1", "Papp A→B at 120 min, 5 μM (×10⁻⁶ cm/s)": 32}
{"MOLECULE": "Cc1cccc(C2CCN(c3cn[nH]c3)CC2)c1", "Papp A→B at 120 min, 5 μM (×10⁻⁶ cm/s)": 60.1}
{"MOLECULE": "CC(Nc1ccc(C2CCN(c3cn[nH]c3)CC2)cc1)C(F)(F)F (stereo not shown)", "Papp A→B at 120 min, 5 μM (×10⁻⁶ cm/s)": 50.4}
{"MOLECULE": "O=C1CCCN1c1ccc(C2CCN(c3cn[nH]c3)CC2)cc1", "Papp A→B at 120 min, 5 μM (×10⁻⁶ cm/s)": 22.2}
{"MOLECULE": "CC(=O)N(C)c1ccc(C2CCN(c3cn[nH]c3)CC2)c(F)c1", "Papp A→B at 120 min, 5 μM (×10⁻⁶ cm/s)": 22.3}
{"MOLECULE": "Clc1ccc(CC2CCN(c3cn[nH]c3)CC2)cc1", "Papp A→B at 120 min, 5 μM (×10⁻⁶ cm/s)": 44.3}
{"MOLECULE": "Cc1ccc(CC2CCN(c3cn[nH]c3)CC2)cc1", "Papp A→B at 120 min, 5 μM (×10⁻⁶ cm/s)": 77.4}

Exercise: Recall the reported Papp A→B at 120 min, 5 μM of `CC(=O)N(C)c1ccc(C2CCN(c3cn[nH]c3)CC2)cc1` when tested on MDR1 (P-gp).
Key: 18.4

Exercise: Provide measured Papp A→B at 120 min, 5 μM on MDR1 (P-gp) for `COc1ccc(C2CCN(c3cn[nH]c3)CC2)cc1Cl` please.
Key: 46.4

Exercise: Give measured Papp A→B at 120 min, 5 μM for `O=C1CCCN1c1ccc(C2CCN(c3ccn[nH]3)CC2)cc1` (MDR1 (P-gp)).
Key: 33.8

---

TARGET DESC: rCYP4F2 (Homo sapiens, UniProt P78329)
Sequence (P78329 5-520): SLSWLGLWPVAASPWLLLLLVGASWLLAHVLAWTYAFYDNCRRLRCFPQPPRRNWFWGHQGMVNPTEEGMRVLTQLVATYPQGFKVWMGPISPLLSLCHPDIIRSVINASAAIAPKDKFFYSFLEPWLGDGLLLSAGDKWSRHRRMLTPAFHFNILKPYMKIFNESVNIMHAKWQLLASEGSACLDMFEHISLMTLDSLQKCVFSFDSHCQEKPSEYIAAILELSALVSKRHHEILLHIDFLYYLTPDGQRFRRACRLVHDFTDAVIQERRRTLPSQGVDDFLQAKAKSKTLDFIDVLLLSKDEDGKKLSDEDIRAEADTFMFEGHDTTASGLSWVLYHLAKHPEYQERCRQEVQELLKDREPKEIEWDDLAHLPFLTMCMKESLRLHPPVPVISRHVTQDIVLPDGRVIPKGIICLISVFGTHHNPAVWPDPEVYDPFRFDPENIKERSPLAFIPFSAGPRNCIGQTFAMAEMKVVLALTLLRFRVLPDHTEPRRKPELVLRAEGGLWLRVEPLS
METHOD SUMMARY: Inhibition of 20-HETE formation at 250 or 500 nM in rCYP4F2 incubations
Format: biochemical
TEST CONTEXT: 500 nM compound; rCYP4F2 25 pmol/mL; read-out: rCYP4F2 % inh. @ 500 nM
inhibition at 0.5 µM vs 70%: at or above is Condition met, below is Condition not met.

Solved cases below.
{"COMPOUND": "Fc1ccc(SC2CCN(c3cn[nH]c3)CC2)cc1 [Compound 70]", "CAT": "Condition met"}
{"COMPOUND": "c1ccc(SC2CCN(c3cn[nH]c3)CC2)cc1 [Compound 40]", "CAT": "Condition met"}

Exercise: Exam item: decide whether the reported inhibition at 0.5 µM for Nc1ccc(C2CCN(c3cn[nH]c3)CC2)cc1 [Compound 105] is at least 70%.
Key: Condition met

Exercise: Hi, just wondering whether O=C(c1ccc(C2CCN(c3cn[nH]c3)CC2)cc1)N1CCCC1 [Compound 77] shows inhibition at 0.5 µM of 70% or higher.
Key: Condition not met

Exercise: // inclusive: inhibition at 0.5 µM at least 70%? input: CS(=O)(=O)Nc1ccc(C2CCN(c3cn[nH]c3)CC2)cc1 [Compound 113]
Key: Condition not met

Exercise: # check: inhibition at 0.5 µM of FC(F)(F)c1ccnc(C2CCN(c3ccn[nH]3)CC2)c1 [Compound 87] is greater than or equal to 70%
Key: Condition not met

Exercise: Is the recorded value of inhibition at 0.5 µM equal to or greater than 70% for this compound? c1cnc(N2CCN(c3cn[nH]c3)CC2)nc1 [Compound 4]
Key: Condition not met

Exercise: Test whether the compound COc1cc(F)cc(C2CCN(c3cn[nH]c3)CC2)c1 [Compound 72] records inhibition at 0.5 µM of 70% or higher.
Key: Condition met

Exercise: Determine whether this compound has inhibition at 0.5 µM no lower than 70%: COc1ccc(C2CCN(c3ccn[nH]3)CC2)cc1F [Compound 43]
Key: Condition met

Exercise: Hello, I need to know if c1ccc(OC2CCN(c3cn[nH]c3)CC2)cc1 [Compound 14, 4-Phenoxy-1-(1H-pyrazol-4-yl)piperidine] has measured inhibition at 0.5 µM not below 70%. Thanks!
Key: Condition not met

Exercise: Hi team, for O=C(c1ccc(C2CCN(c3cn[nH]c3)CC2)c(F)c1)N1CCCC1 [Compound 81] , is the recorded inhibition at 0.5 µM at or above 70%?
Key: Condition not met

Exercise: Check the entry COc1cccc(C2CCN(c3ccn[nH]3)CC2)c1 [Compound 7] : does inhibition at 0.5 µM equal or exceed 70%?
Key: Condition not met

Exercise: Please indicate if the recorded inhibition at 0.5 µM for O=S1(=O)Cc2ccc(C3CCN(c4cn[nH]c4)CC3)cc2C1 [Compound 108] meets or exceeds 70%.
Key: Condition met

Exercise: Has COc1ccc(C2CCN(c3ccn[nH]3)CC2)cn1 [Compound 31] a recorded inhibition at 0.5 µM greater than or equal to 70%?
Key: Condition not met
